These data points were gathered from patent US20230286930A1.

- System: HBeAg
- protocol_notes: PHH natural infection assay, HBeAg (alphalisa)
- Assay type: cell-based, HBV
- experimental_conditions: Hepatitis B virus, read-out: HBeAg IC50
Kindly apply the following: yes if IC50 is less than 4000 nM, no in every other case.

Consider the worked cases shown below.
>  <compound>
O=C(Nc1ccc(-c2nc3cccc(F)c3o2)cc1)C12CC(F)(C1)C2 [Example 16]

>  <system>
HBeAg

>  <class_label>
yes

$$$$
>  <compound>
O=C(Nc1ccc(-c2nc3cccc(F)c3o2)cc1)C1CCOCC1 [Example 28]

>  <system>
HBeAg

>  <class_label>
yes

$$$$
>  <compound>
O=C(Nc1ccc(-c2nc3c(F)cccc3o2)cc1)C1CS(=O)(=O)C1 [Example 57]

>  <system>
HBeAg

>  <class_label>
no

$$$$
>  <compound>
O=C(Nc1ccc(-c2nc3c(F)cccc3o2)cc1)c1nccs1 [Example 44]

>  <system>
HBeAg

>  <class_label>
yes

$$$$
>  <compound>
Cc1ncc(C(=O)Nc2ccc(-c3nc4c(F)cccc4o3)cc2)o1 [Example 45]

>  <system>
HBeAg

>  <class_label>
yes

$$$$

INPUT: Lab log: compare recorded IC50 with 4000 nM; is it strictly lower for O=C(Nc1ccc(-c2nc3cc(F)ccc3o2)cc1)C1CCSCC1 [Example 7] ?
OUTPUT: no
